# Test system: SF-295 CNS
# assay-details: NCI tumour cell line growth inhibition, 48 h; in the data active = GI50 below about 0.43 µM; inactive = the rest
Possible outcomes: active, inactive

| compound-structure-string | assigned-category |
| --- | --- |
| O=C1c2cccnc2C(=O)c2c1c(C(=O)OCCN1CCCCC1)c1ccccn21 | active |
| N#CC(C#N)=C1CCOc2ccc(F)cc21 | inactive |
| NC(=S)N/N=C1\c2ccccc2-c2c(F)c(F)c(F)c(F)c21 | inactive |

====

Measured GI50 on U251 CNS follows.

| molecule | GI50 |
| --- | --- |
| O=C1CC(c2ccccc2)Cc2nc3ccc(Br)cc3cc21 (stereo unspecified) | 514 nM |
| CC(C)(C)c1cc(/C=N/NC(=O)c2ccccc2NC(=O)c2cccs2)c(O)c(C(C)(C)C)c1 | 700 nM |
| N#CC(C#N)=C1CCOc2ccc(F)cc21 | 11200 nM |
| CC[C@@]1(O)C(=O)OCc2c1cc1n(c2=O)Cc2cc3ccccc3nc2-1 | < 12.9 nM |
| O=C(O)c1cc(=O)cc(C(=O)O)o1 | > 100000 nM |
| COC1=C(C)C(=O)c2c(c(CCCl)c3n2CCC3OC(C)=O)C1=O (stereo unspecified) | 273 nM |

====

# Tested on: HOP-62 NSCLC
# assay-details: NCI tumour cell line growth inhibition, 48 h

| compound-structure-string | target-entity | TGI |
| --- | --- | --- |
| COc1ccc(-c2nc3c(nc2-c2ccc(OC)cc2)C(N)=NS(=O)(=O)N3)cc1 | HOP-62 NSCLC | > 100 µM |
| O=C(O)C1(Cc2ccccc2)Cc2cc3c(cc2C1)CCC3 | HOP-62 NSCLC | > 100 µM |
| COc1cc([N+](=O)[O-])c(OC)cc1-c1nc2sc(C)cn2c1/C(N)=N/C(=N)N | HOP-62 NSCLC | > 100 µM |

====

# Test system: MOLT-4 leukemia
# assay-details: NCI tumour cell line growth inhibition, 48 h
Quick reference: TGI of the listed items.

| compound | TGI |
| --- | --- |
| C=CCC1(Sc2ccccn2)Sc2ccc3ccccc3c2-c2c(ccc3ccccc23)S1 | > 100 µM |
| CN/C=C(\C(=O)c1ccc(OC)c(OC)c1)c1ccc(OC)cc1 | 62 µM |
| O=S1(=O)c2ccccc2C(Nc2ccccc2)N1c1ccccc1 (configuration not stated) | > 100 µM |
| O=C(N/C(=C\c1cccc([N+](=O)[O-])c1)c1nc2ccccc2[nH]1)c1ccccc1 | > 100 µM |
| C[C@@H](NS(=O)(=O)c1ccc(NC(=O)c2ccccc2)cc1)C(=O)O | > 100 µM |
| CCN(CC)CC(C)C(=O)/C=C/c1ccc(C)cc1 (configuration not stated) | 7.07 µM |
| COc1ccc(N2C(=O)C3c4[nH]c5ccccc5c4C4CC(C)(C)CC(C)(C)C4C3C2=O)cc1 (configuration not stated) | 36.6 µM |
| O=c1[nH]c(=O)n(C2CC(O)C(CO)O2)cc1C(F)(C(F)(F)F)C(F)(F)F (configuration not stated) | > 100 µM |
| OCC(O)CNc1ncnc2ccccc12 (configuration not stated) | > 100 µM |
| CC1(C)C2CCC1(C)C(OC(=O)/C=C/C(=O)OC1CC3CCC1(C)C3(C)C)C2 (configuration not stated) | 45.9 µM |
| N#Cc1ccc(-c2nc3c(N)nc(-c4ccccc4)nc3o2)cc1 | > 100 µM |
| N#CC1=C2SCCN2C(=O)C(C#N)C12CCCCC2 (configuration not stated) | > 100 µM |
| CC(=O)OCC1OC(N2C(c3ccccc3)=CC(c3ccco3)C(C#N)=C2S)C(OC(C)=O)C(OC(C)=O)C1OC(C)=O (configuration not stated) | > 75.4 µM |
| CC(=O)NC(Cc1ccccc1)NC(=O)O (configuration not stated) | > 100 µM |
| CNC1Cc2c[nH]c3cccc(c23)C12C=C(C)C(=O)O2 (configuration not stated) | > 100 µM |
| CC(=O)O[C@H]1CCN2C(=O)C=CC(OCc3ccccc3)C12 (some centres not stated) | > 100 µM |
| COc1cc(/C=C2\N=C(c3ccccc3)N(c3ccc(C(=O)c4ccccc4)cc3N3C(=O)/C(=C/c4ccc(O)c(OC)c4)N=C3c3ccccc3)C2=O)ccc1O | 15.3 µM |
| CC1(CO)COS(=O)OC1 (configuration not stated) | > 100 µM |
| O=C(C=P(c1ccccc1)(c1ccccc1)c1ccccc1)CCl | 6.85 µM |
| CC1C2CC(CC2(C)O)C1(C)C (configuration not stated) | > 100 µM |
| CC[C@@]1(O)C(=O)OCc2c1cc1n(c2=O)Cc2cc3ccccc3nc2-1 | 0.0445 µM |
| CCN1c2cc(Br)cc3[nH]c(=O)n(c23)CCC1C (configuration not stated) | 65.5 µM |
| Cc1c2c(nc3ccccc13)C(=O)c1cccnc1C2=O | 64.7 µM |
| COC(=O)[C@@]1(C)C(=O)CC[C@@H]1C=O | > 100 µM |
| Cn1cc(-c2nc(-c3c[nH]c4ncccc34)cs2)c2ccccc21 | > 100 µM |
| CCOC(=O)C1=C(C)NC(=O)NC1CN1C(=O)c2ccccc2C1=O (configuration not stated) | > 100 µM |
| CCOC(=O)Cn1c2ccc(Br)cc2c2nc3ccccc3nc21 | > 100 µM |

====

# Tested on: OVCAR-3 ovarian
# assay-details: NCI tumour cell line growth inhibition, 48 h
Where a SMILES comes first, the peptide text is derived from it.
Quick reference: TGI of the listed items.

| molecule | TGI |
| --- | --- |
| Cc1ccc(OCC2OC(n3cnc4nc(Nc5ccc(Cl)c(Cl)c5)nc(Cl)c43)CC2Oc2ccc(C)cc2)cc1 (stereo unspecified) | > 100 µM |
| Cc1ccc2cccc(OC(=O)Nc3cccc(C(F)(F)F)c3)c2n1 | 9.61 µM |
| CCCCCCCCCCCCCCCCCCNc1ccn(C2OC(CO)C(OP(=O)(O)OCC(O)COP(=O)(O)OCC3OC(n4cc(F)c(NCCCCCCCCCCCCCCCCCC)nc4=O)CC3O)C2O)c(=O)n1 (stereo unspecified) | > 50 µM |
| COc1c(/C=C/C=O)cc2c(c1OC)OCO2 | > 100 µM |
| C=C1[C@H](OCC(C)C)[C@@H](O)[C@@H](OC(=O)c2cccnc2)C(C)(C)/C=C/[C@H](C)[C@H](OC(C)=O)[C@@]2(O)C[C@@](C)(OC(C)=O)[C@H](OC(=O)c3ccccc3)[C@@H]2[C@H]1OC(C)=O | > 3.67 µM |
| NS(=O)(=O)c1ccc(NC(=O)Cc2nc3ccccc3s2)cc1 | 30.4 µM |
| OCC(O)CNc1ncnc2ccccc12 (stereo unspecified) | > 100 µM |
| CC(C)CCNC(=O)C(CC(C)C)NC(=O)[C@H]1O[C@@H]1C(=O)O (stereo partly specified) | > 100 µM |
| NC(=O)C1CCCN1C(=O)C(N)Cc1ccccc1 (stereo not drawn) (H-Phe-Pro-NH2; configuration not given here) | > 100 µM |
| CC(C)(C)c1cc(/C=N/NC(=O)c2ccccc2NC(=O)c2cccs2)c(O)c(C(C)(C)C)c1 | 10.5 µM |
| CCC1C(C(=O)Nc2ccccc2C)=C(C)NC(C)=C1c1ccccc1C (stereo unspecified) | > 100 µM |
| O=c1c2ccccc2c(/C=N\NC2=NCCN2)c2oc3ccccc3n12 | 34.3 µM |
| O=C(NCCC1CN(C(=O)OCc2ccccc2)c2ccccc21)OCc1ccccc1 (stereo unspecified) | > 100 µM |
| COc1cc(/C=N/c2nc3cc4sc(/N=C/c5cc(OC)c(OC)c(OC)c5)nc4cc3s2)cc(OC)c1OC | > 100 µM |
| CC1C(=O)CC(c2cccs2)N(N=O)C1c1cccs1 (stereo unspecified) | > 79.5 µM |
| CC12CCC(=O)N1c1cncnc1N2 (stereo unspecified) | > 10 µM |
| CC1(CO)COS(=O)OC1 (stereo unspecified) | > 100 µM |
| CCOC(=O)C1=C(C)NC2=C(C(=O)N(c3ccccc3)C2c2ccccc2)C1c1ccccc1 (stereo unspecified) | 25.4 µM |
| CCc1n[nH]c(=O)n1/N=C(\C)c1ccc([N+](=O)[O-])cc1 | > 100 µM |
| O=C(Oc1c(Cl)cc(C2(c3cc(Cl)c(OC(=O)c4ccccc4)c(Cl)c3)CCCCC2)cc1Cl)c1ccccc1 | 27.9 µM |
| Cc1cc2c(c(O)c1-c1c(C)cc(O)c3c1C(=O)C=CC3=O)C(=O)C=CC2=O | 5.99 µM |
| CC(C)(C)C(=O)Nc1cccc2oc(-c3ccccc3)cc12 | > 100 µM |
| COC(=O)c1ncc2c(=O)[nH]c3ccccc3c2c1C(=O)OC | > 100 µM |
| CC(=O)OCC1OC(N2C(c3ccccc3)=CC(c3ccco3)C(C#N)=C2S)C(OC(C)=O)C(OC(C)=O)C1OC(C)=O (stereo unspecified) | 18.3 µM |
| Cc1[nH]c(=O)[nH]c(=O)c1/C=C/C(=O)NC(CO)CS(=O)CS(C)=O (stereo unspecified) | 31.1 µM |
| CCOC(=O)CCC(C(=O)OCC)n1nc2ccc(Nc3c(C)[n+]([O-])c4cc(F)c(OCC)cc4[n+]3[O-])cc2n1 (stereo unspecified) | > 100 µM |
| COc1cc2c(c(O)c1OC)C(=O)[C@@H]1CCC(=O)N1C2c1ccccc1 (stereo partly specified) | > 100 µM |
| C=CCC1(Sc2ccccn2)Sc2ccc3ccccc3c2-c2c(ccc3ccccc23)S1 | > 100 µM |
| COC(=O)[C@@]1(C)C(=O)CC[C@@H]1C=O | > 100 µM |
| O=C(Cc1nc2ccccc2o1)C(=O)Nc1cccc(Cl)c1 | > 100 µM |
| Oc1[nH]c(=S)[nH]c1/C=C1/C(c2ccccc2)=Nc2ccccc21 | 30 µM |
